All figures here come from patent US20260234157A1.

- Study System: AR protein (Homo sapiens)
- Construct: degradation activity of the compounds disclosed in the present disclosure on AR protein in VCaP cells; host or cells: VCaP
- Method: Degradation of AR protein in VCaP cells (Western blot)
- Type: cell-based
- Reported Conditions: compound at 10 nM, 8 hours, read-out: Degradation rate of the AR protein in VCaP cells, 10 nM (%)
Quantity Name: inhibition at 0.01 µM (%)
Answers are plain numbers, in %.

Look over these answered cases.
{"Compound": "COc1cc(O[C@H]2C(C)(C)[C@H](NC(=O)c3ccc(N4CCC(C)(CN5CC6(CCc7ccc8c(c7O6)C(=O)N(C6CCC(=O)NC6=O)C8=O)C5)CC4)cc3)C2(C)C)ccc1C#N (stereo partly drawn) [Compound 290]", "Readout Units": "%", "Experimental Result": -2}
{"Compound": "N#Cc1ccc(O[C@H]2CC[C@H](NC(=O)c3ccc(N4CC(CN5CCC6(CC5)COc5cc7c(cc5C6)C(=O)N(C5CCC(=O)NC5=O)C7=O)C4)nn3)CC2)cc1Cl (stereo partly drawn) [Compound 59]", "Readout Units": "%", "Experimental Result": 86}

Lab note: need inhibition at 0.01 µM with AR protein (Homo sapiens) for entry N#Cc1ccc(O[C@H]2CC[C@H](NC(=O)c3ccc(N4CC(N5CCC6(CC5)COc5c6ccc6c5C(=O)N(C5CCC(=O)NC5=O)C6=O)C4)nn3)CC2)cc1Cl (stereo partly drawn) [Compound 142] , please look it up. 26

----------
- Study System: AR protein (Homo sapiens)
- Construct: degradation activity of the compounds disclosed in the present disclosure on AR protein in VCaP cells; host or cells: VCaP
- Method: Degradation of AR protein in VCaP cells (Western blot)
- Format: cell-based
- Reported Conditions: compound at 10 nM, 8 hours, read-out: Degradation rate of the AR protein in VCaP cells, 10 nM (%)
- Method: The degradation activity of the compounds disclosed in the present disclosure on AR protein in VCaP cells (cell source: ATCC) Corresponding solvent controls were also set and cultured for 8 hours. After 8 hours of cultivation, the culture medium was removed and the cells were washed with PBS. […] The protein concentration in the extract was detected by BCA method. […] Bands were analyzed in grayscale using Image Studio software. For each sample, GAPDH protein bands were detected as internal reference. […]
Quantity Name: inhibition at 0.01 µM (%)
One number for each entry, in %.

Look over these answered cases.
{"Compound": "N#Cc1ccc(O[C@H]2CC[C@H](NC(=O)c3cnc(N4CCC(F)(CN5CCC6(CC5)COc5c6ccc6c5CN(C5CCC(=O)NC5=O)C6=O)CC4)cn3)CC2)cc1Cl (some centres unmarked)", "Study System": "AR protein (Homo sapiens)", "Experimental Result": 46}
{"Compound": "N#Cc1ccc(O[C@H]2CC[C@H](NC(=O)c3ccc(N4CC(N5CCC6(CCc7ccc8c(c7O6)CN(C6CCC(=O)NC6=O)C8=O)CC5)C4)nn3)CC2)cc1Cl (some centres unmarked)", "Study System": "AR protein (Homo sapiens)", "Experimental Result": -9}
{"Compound": "N#Cc1ccc(O[C@H]2CC[C@H](NC(=O)c3ccc(N4CCC5(CCC(N6CCC7(CCc8cc9c(cc8O7)C(=O)N(C7CCC(=O)NC7=O)C9=O)CC6)CC5)CC4)nn3)CC2)cc1Cl (some centres unmarked)", "Study System": "AR protein (Homo sapiens)", "Experimental Result": 39}

Quick batch: inhibition at 0.01 µM for everything below.
1. CCC1(CN2CCC3(CC2)COc2c3ccc3c2C(=O)N(C2CCC(=O)NC2=O)C3=O)CCN(c2ccc(C(=O)N[C@H]3C(C)(C)[C@H](Oc4ccc(C#N)c(OC)c4)C3(C)C)cc2)CC1 (some centres unmarked)
2. N#Cc1ccc(O[C@H]2CC[C@H](NC(=O)c3ccc(N4CCC5(CC4)CC(N4CCC6(CC4)COc4cc7c(cc46)C(=O)N(C4CCC(=O)NC4=O)C7=O)C5)nn3)CC2)cc1Cl (some centres unmarked)

[-33, 82]

----------
- Study System: AR protein (Homo sapiens)
- Construct: degradation activity of the compounds disclosed in the present disclosure on AR protein in VCaP cells; host or cells: VCaP
- Method: Degradation of AR protein in VCaP cells (Western blot)
- Format: cell-based
- Reported Conditions: compound at 10 nM, 8 hours, read-out: Degradation rate of the AR protein in VCaP cells, 10 nM (%)
Quantity Name: inhibition at 0.01 µM (%)
One number for each entry, in %.

Look over these answered cases.
{"Compound": "COc1cc(O[C@H]2CC[C@H](NC(=O)c3cnc(N4CCC(CN5CC6(CCc7cc8c(cc7O6)C(=O)N(C6CCC(=O)NC6=O)C8=O)C5)(OC)CC4)nc3)CC2)ccc1C#N (some centres unmarked)", "Quantity Name": "inhibition at 0.01 µM", "Experimental Result": 37}
{"Compound": "COC1(CN2CC3(CCc4ccc5c(c4O3)C(=O)N(C3CCC(=O)NC3=O)C5)C2)CCN(c2ccc(C(=O)N[C@H]3CC[C@H](Oc4ccc(C#N)c(Cl)c4)CC3)nn2)CC1 (some centres unmarked)", "Quantity Name": "inhibition at 0.01 µM", "Experimental Result": -28}

Quick batch: inhibition at 0.01 µM for everything below.
1. COc1cc(O[C@H]2C(C)(C)[C@H](NC(=O)c3ccc(N4CCC(F)(CN5CCC6(CC5)COc5c6ccc6c5C(=O)N(C5CCC(=O)NC5=O)C6=O)CC4)cc3)C2(C)C)ccc1C#N (some centres unmarked)
2. COc1cc(O[C@H]2C(C)(C)[C@H](NC(=O)c3ccc(N4CCC(C#N)(CN5CCC6(CC5)COc5c6ccc6c5CN(C5CCC(=O)NC5=O)C6=O)CC4)nn3)C2(C)C)ccc1C#N (some centres unmarked)
3. COc1cc(OC2C(C)(C)C(NC(=O)c3ccc(N4CCC(CN5CCC6(CC5)COc5cc7c(cc56)C(=O)N(C5CCC(=O)NC5=O)C7=O)CC4)cc3)C2(C)C)ccc1C#N (centres unmarked)

7
24
15

----------
- Study System: AR protein (Homo sapiens, UniProt P10275, T878A)
- Construct: degradation activity of the compounds disclosed in the present disclosure on AR protein in LNCaP cells; host or cells: LNCaP FGC
- Sequence (P10275 1-920 T878A): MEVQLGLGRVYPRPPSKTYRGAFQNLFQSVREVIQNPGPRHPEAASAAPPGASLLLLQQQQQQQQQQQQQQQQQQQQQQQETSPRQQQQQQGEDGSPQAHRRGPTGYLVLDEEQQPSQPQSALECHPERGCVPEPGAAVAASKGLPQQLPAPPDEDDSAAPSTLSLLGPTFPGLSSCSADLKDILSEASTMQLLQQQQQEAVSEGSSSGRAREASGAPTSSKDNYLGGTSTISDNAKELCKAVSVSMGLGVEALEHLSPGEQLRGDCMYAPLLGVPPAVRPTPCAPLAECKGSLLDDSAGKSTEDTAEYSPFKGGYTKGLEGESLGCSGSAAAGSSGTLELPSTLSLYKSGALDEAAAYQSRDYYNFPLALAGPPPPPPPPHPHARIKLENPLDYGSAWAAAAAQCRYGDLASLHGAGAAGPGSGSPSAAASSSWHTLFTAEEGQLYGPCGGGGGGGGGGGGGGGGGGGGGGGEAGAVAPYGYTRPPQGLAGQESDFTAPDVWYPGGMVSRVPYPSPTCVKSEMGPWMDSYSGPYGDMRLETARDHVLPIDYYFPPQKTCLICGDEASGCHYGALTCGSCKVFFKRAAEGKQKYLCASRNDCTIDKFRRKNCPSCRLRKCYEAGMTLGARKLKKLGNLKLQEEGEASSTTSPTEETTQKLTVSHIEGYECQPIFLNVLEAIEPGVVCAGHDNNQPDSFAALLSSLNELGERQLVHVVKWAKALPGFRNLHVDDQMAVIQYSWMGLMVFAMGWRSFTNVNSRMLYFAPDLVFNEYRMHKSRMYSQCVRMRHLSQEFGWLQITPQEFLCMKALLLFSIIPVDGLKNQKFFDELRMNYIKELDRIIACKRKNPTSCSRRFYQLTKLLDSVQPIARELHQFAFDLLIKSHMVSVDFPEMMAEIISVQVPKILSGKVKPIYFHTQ
- Method: Degradation of AR protein in LNCaP cells (Western blot)
- Assay type: cell-based
- Reported Conditions: LNCaP cells, compound 10 nM, 8 hours, Western blot grayscale, GAPDH internal reference; read-out: Degradation rates of the AR protein in LNCaP cells, 10 nM (%)
- Description: The degradation activity of the compounds disclosed in the present disclosure on AR protein in LNCaP cells (cell source: ATCC) Corresponding solvent controls were also set and cultured for 8 hours. After 8 hours of cultivation, the culture medium was removed and the cells were washed with PBS. […] The protein concentration in the extract was detected by BCA method. […] Bands were analyzed in grayscale using Image Studio software. For each sample, GAPDH protein bands were detected as internal reference. […]
Quantity Name: inhibition at 0.01 µM (%)
One number for each entry, in %.

{"Compound": "N#Cc1ccc(O[C@H]2CC[C@H](NC(=O)c3ccc(N4CCC(CN5CC6(CCc7cc8c(cc7O6)CN(C6CCC(=O)NC6=O)C8=O)C5)CC4)nn3)CC2)cc1Cl (some centres unmarked) [Compound 7]", "Study System": "AR protein (Homo sapiens, UniProt P10275, T878A)", "Quantity Name": "inhibition at 0.01 µM", "Experimental Result": 86}
{"Compound": "COc1cc(O[C@H]2C(C)(C)[C@H](NC(=O)c3ccc(N4CCC(C#N)(CN5CCC6(CC5)COc5c6ccc6c5CN(C5CCC(=O)NC5=O)C6=O)CC4)cc3)C2(C)C)ccc1C#N (some centres unmarked) [Compound 208]", "Study System": "AR protein (Homo sapiens, UniProt P10275, T878A)", "Quantity Name": "inhibition at 0.01 µM", "Experimental Result": 34}
{"Compound": "N#Cc1ccc(O[C@H]2CC[C@H](NC(=O)c3ccc(N4CCC(F)(CN5CCC6(CC5)COc5cc7c(cc5C6)C(=O)N(C5CCC(=O)NC5=O)C7=O)CC4)nn3)CC2)cc1Cl (some centres unmarked) [Compound 67]", "Study System": "AR protein (Homo sapiens, UniProt P10275, T878A)", "Quantity Name": "inhibition at 0.01 µM", "Experimental Result": 37}

Quick batch: inhibition at 0.01 µM for everything below.
1. N#Cc1ccc(O[C@H]2CC[C@H](NC(=O)c3ccc(N4CCC5(CC4)CC(N4CCC6(CC4)COc4cc7c(cc4C6)C(=O)N(C4CCC(=O)NC4=O)C7=O)C5)nn3)CC2)cc1Cl (some centres unmarked) [Compound 71]
2. N#Cc1ccc(O[C@H]2CC[C@H](NC(=O)c3ccc(N4CCC(C#N)(CN5CCC6(CC5)COc5c6ccc6c5C(=O)N(C5CCC(=O)NC5=O)C6=O)CC4)nn3)CC2)cc1C(F)(F)F (some centres unmarked) [Compound 228]

[37, 30]
